molecular target: truncated form of human NaV 1.8 with full channel activity (Homo sapiens); test: E-VIPR Assay Method B for detecting and measuring Nav inhibition (HEK cells, membrane potential FRET dyes, electrical stimulation); type: cell-based; conditions: HEK cells expressing human NaV 1.8, Table 20B, read-out: Nav 1.8 MedChem Optical Assay EVIPR Assay Method B HS IC50
endpoint-name: IC50 (nM)

Field: example entries. Status: answers known.
IC50 for truncated form of human NaV 1.8 with full channel activity (Homo sapiens) with input "Cc1ccc(C(N)=O)cc1NC(=O)c1c(Oc2ccc(F)cc2Cl)cccc1C(F)(F)F" equals 7200

Form field IC50 for item "NC(=O)c1cccc(NC(=O)c2ccc(C(F)(F)C(F)(F)F)cc2Oc2ccc(F)cc2)c1" on truncated form of human NaV 1.8 with full channel activity (Homo sapiens): 60

Sample "COc1cc(F)ccc1Oc1cc(Cl)c(Cl)cc1C(=O)Nc1ccc(C(N)=O)cc1" , system: truncated form of human NaV 1.8 with full channel activity (Homo sapiens). Its IC50 is 2

Lab note: molecule "COc1ccc(Oc2ccc(C(F)(F)F)cc2C(=O)Nc2cccc(C(N)=O)c2)c(C)c1" tested on truncated form of human NaV 1.8 with full channel activity (Homo sapiens); recorded IC50 was 42

[A] COc1ccc(Oc2ccc(C(F)(F)F)cc2C(=O)Nc2cccc(C(N)=O)c2)c(Cl)c1
[B] NC(=O)c1cccc(NC(=O)c2cc(C(F)(F)F)ccc2Oc2ccc(F)cc2Cl)c1
[C] COc1ccc(Oc2cc(Cl)c(Cl)cc2C(=O)Nc2cccc(C(N)=O)c2)c(OC)c1
[D] COc1ccc(Oc2cc(Cl)c(Cl)cc2C(=O)Nc2cccc(C(N)=O)c2)cc1F
Query block: Provide the items ranked by increasing IC50. Put the labels in the requested order and write them down.
Result block: C, D, B, A
(C: 9 nM, D: 20 nM, B: 36 nM, A: 56 nM)

* * *

target: truncated form of human NaV 1.8 with full channel activity (Homo sapiens); test: E-VIPR Assay Method B for detecting and measuring Nav inhibition (HEK cells, membrane potential FRET dyes, electrical stimulation); type: cell-based; settings: HEK cells expressing human NaV 1.8, Table 20B, read-out: Nav 1.8 MedChem Optical Assay EVIPR Assay Method B HS IC50
pIC50: −log10 of the molar value.
endpoint-name: pIC50

Some entries whose results are on file:
Lab note: "NC(=O)c1cccc(NC(=O)c2cc(C(F)(F)F)ccc2Oc2ccc(F)cc2)c1" gave pIC50 of 7.01

The value of pIC50 measured for the compound "COc1c(F)cccc1Oc1ccc(C(F)(F)F)cc1C(=O)Nc1cccc(C(N)=O)c1" turned out to be 7.68

Measured pIC50 of "CC(C)(C)c1ccc(C(=O)Nc2cncc(C(N)=O)c2)c(Oc2ccc(C(F)(F)F)nc2)c1" : 5.92

[I] COc1ccc(Oc2cc(C(F)(F)C(F)(F)F)ccc2C(=O)Nc2cccc(C(N)=O)c2)c(OC)c1
[II] COc1ccc(NC(=O)c2c(Oc3ccc(F)cc3Cl)cccc2C(F)(F)F)cc1C(N)=O
[III] Cc1cc(F)ccc1Oc1ccc(C(F)(F)F)cc1C(=O)Nc1cccc(C(N)=O)c1
[IV] COc1ccc(Oc2cc(C(F)(F)F)ccc2C(=O)Nc2cccc(C(N)=O)c2)c(Cl)c1
Query block: // ranking: key=pIC50, reverse=True Put the labels in the order asked and list them.
Result block: III, I, IV, II
(III: 7.74, I: 7.44, IV: 6.89, II: 6.06)

[1] NC(=O)c1cccc(NC(=O)c2cc(C(F)(F)F)ccc2Oc2ccccc2Cl)c1
[2] Cc1cc(F)ccc1Oc1cc(Cl)c(Cl)cc1C(=O)Nc1cccc(C(N)=O)c1
Query block: Between these two entries, 1 and 2 , state which has the higher pIC50. Answer format: the label of the selected item.
Result block: 2
(2: 8.15, 1: 7.09)

[P] COc1cc(F)ccc1Oc1cc(Cl)c(Cl)cc1C(=O)Nc1cccc(C(N)=O)c1
[Q] COc1ccc(Oc2ccc(C(F)(F)F)cc2C(=O)Nc2cccc(C(N)=O)c2)c(OC)c1
Query block: // compare: P vs Q , metric pIC50, want the smaller Reply with the label of the item you choose.
Result block: Q

[P] Cc1cc(F)ccc1Oc1ccc(C(F)(F)F)cc1C(=O)Nc1ccc(C(N)=O)cc1
[Q] CC(C)(C)c1ccc(C(=O)Nc2ccnc(C(N)=O)c2)c(Oc2ccc(C(F)(F)F)nc2)c1
[R] NC(=O)c1ccc(NC(=O)c2c(Oc3ccc(F)cc3Cl)cccc2C(F)(F)F)cn1
[S] Cc1cccc(Oc2ccc(F)cc2Cl)c1C(=O)Nc1cccc(C(N)=O)c1
Query block: Ascending sort, pIC50. // rank by listing labels in the order requested
Result block: Q, R, S, P

* * *

target: truncated form of human NaV 1.8 with full channel activity (Homo sapiens, UniProt Q9Y5Y9); experiment: E-VIPR Assay Method A for detecting and measuring Nav inhibition (HEK cells, membrane potential FRET dyes, electrical stimulation); format: cell-based; details: HEK cells expressing human NaV 1.8, HS (human serum) in compound loading buffer, 11 point dose response, top dose 3 μM, Table 20A, read-out: Nav 1.8 MedChem Optical Assay EVIPR Assay Method A HS IC50
Sequence (Q9Y5Y9 126-1722 limits assumed): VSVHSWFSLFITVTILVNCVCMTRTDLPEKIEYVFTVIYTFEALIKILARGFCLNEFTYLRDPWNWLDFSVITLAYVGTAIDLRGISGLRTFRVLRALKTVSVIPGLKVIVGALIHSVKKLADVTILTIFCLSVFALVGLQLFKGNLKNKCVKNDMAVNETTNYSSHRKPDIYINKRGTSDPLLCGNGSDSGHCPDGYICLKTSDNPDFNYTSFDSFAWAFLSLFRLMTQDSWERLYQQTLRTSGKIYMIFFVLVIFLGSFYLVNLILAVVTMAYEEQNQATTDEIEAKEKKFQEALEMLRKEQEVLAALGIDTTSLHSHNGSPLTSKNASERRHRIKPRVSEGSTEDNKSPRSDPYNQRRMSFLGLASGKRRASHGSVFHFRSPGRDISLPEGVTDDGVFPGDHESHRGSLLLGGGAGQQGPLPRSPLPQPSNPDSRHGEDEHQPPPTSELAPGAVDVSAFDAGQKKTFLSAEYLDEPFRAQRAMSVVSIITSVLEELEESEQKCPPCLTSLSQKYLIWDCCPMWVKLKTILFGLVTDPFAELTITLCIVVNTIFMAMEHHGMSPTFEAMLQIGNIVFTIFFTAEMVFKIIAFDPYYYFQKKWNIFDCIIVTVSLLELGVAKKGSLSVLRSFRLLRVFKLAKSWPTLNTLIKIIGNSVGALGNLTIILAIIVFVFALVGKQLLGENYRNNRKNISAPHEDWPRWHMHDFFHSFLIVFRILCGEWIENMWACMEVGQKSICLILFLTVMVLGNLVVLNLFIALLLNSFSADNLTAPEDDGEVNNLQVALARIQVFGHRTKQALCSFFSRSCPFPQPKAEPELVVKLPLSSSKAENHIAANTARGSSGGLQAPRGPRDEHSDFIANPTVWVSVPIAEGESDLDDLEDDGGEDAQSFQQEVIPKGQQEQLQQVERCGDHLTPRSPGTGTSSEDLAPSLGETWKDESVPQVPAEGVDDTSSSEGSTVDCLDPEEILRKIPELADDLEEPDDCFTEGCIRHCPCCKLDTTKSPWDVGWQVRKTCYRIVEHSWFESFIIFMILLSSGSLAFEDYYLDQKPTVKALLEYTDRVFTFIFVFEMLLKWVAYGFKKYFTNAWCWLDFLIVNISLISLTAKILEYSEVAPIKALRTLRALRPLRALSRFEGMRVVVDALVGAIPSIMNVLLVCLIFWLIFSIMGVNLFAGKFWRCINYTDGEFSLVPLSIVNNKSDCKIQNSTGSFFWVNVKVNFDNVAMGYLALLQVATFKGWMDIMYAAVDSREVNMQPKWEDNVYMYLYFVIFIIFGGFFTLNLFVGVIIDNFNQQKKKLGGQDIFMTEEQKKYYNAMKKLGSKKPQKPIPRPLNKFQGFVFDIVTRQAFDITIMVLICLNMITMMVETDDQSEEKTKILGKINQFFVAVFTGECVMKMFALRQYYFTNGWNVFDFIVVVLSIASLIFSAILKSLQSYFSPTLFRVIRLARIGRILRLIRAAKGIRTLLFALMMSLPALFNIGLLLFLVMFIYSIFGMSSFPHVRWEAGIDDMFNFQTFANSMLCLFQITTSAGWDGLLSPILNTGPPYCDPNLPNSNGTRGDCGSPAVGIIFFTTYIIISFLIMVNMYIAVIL
pIC50: −log10 of the molar value.
endpoint-name: pIC50

Record excerpt, results attached:
For record "[2H]C([2H])([2H])Oc1cc(OC(F)(F)F)ccc1Oc1ccc(C(F)(F)F)c(OC)c1C(=O)Nc1cc(C(N)=O)ncc1C" the listed pIC50 is 7.41

Entry under test: "COc1cc(OC(F)(F)F)ccc1Oc1cc(C2CC2)ncc1C(=O)Nc1ccnc(C(N)=O)c1" . Its pIC50 was 7.01

// pIC50 value for "NC(=O)c1ccc(NC(=O)c2c(Oc3ccc(OC(F)(F)F)cc3)ccc(C(F)(F)F)c2F)cn1" : 6.73

[1] NC(=O)c1ccc(NC(=O)c2c(Oc3ccc(OC(F)(F)F)cc3)ccc3c2CCC3(F)F)cn1
[2] COc1cc(OC(F)(F)F)ccc1Oc1cc(C(C)(C)F)ncc1C(=O)Nc1ccnc(C(N)=O)c1
Query block: pIC50 comparison. Which is larger, 1 or 2 ? Please indicate the selected item by its label.
Result block: 2
(2: 7.19, 1: 6.38)

* * *

molecular target: truncated form of human NaV 1.8 with full channel activity (Homo sapiens); test: E-VIPR Assay Method A for detecting and measuring Nav inhibition (HEK cells, membrane potential FRET dyes, electrical stimulation); assay type: cell-based; details: HEK cells expressing human NaV 1.8, HS (human serum) in compound loading buffer, 11 point dose response, top dose 3 μM, Table 20A, read-out: Nav 1.8 MedChem Optical Assay EVIPR Assay Method A HS IC50
pIC50: −log10 of the molar value.
endpoint-name: pIC50

Some solved entries appear below for comparison.
Item: COc1cc(OC(F)(F)F)ccc1Oc1cc(C(F)(F)F)ccc1C(=O)Nc1ccc(F)c(C(N)=O)c1 [Compound 27] | pIC50: 7.06

Notebook: NC(=O)c1cc(NC(=O)c2c(Oc3ccc(OC(F)(F)F)cc3)cc(C(F)(F)F)cc2C(F)(F)F)ccn1 [Compound 160] , pIC50 read as 6.39

pIC50 in this record for [2H]C([2H])([2H])Oc1c(Oc2ccc(OC(F)(F)F)c(NC)c2C(=O)Nc2ccnc(C(=O)NC)c2)ccc(OC(F)(F)F)c1F [Compound 230] : 6.60

So, NC(=O)c1cc(NC(=O)c2c(Oc3ccc(OC(F)(F)F)cc3)ccc(C(F)F)c2F)ccc1F [Compound 74] ? Its pIC50 was 7.66

[1] NC(=O)c1cc(NC(=O)c2cc(C(F)(F)C(F)(F)F)ccc2Oc2ccc(OC(F)(F)F)cc2)ccn1 [Compound 80]
[2] COc1cc(OC(F)(F)F)ccc1Oc1cc(C(F)(F)F)cc(F)c1C(=O)Nc1cc(C(N)=O)ncc1C [Compound 153]
Query block: Please compare: 1 and 2 . Report which one has the smaller pIC50 value. Please reply using the label of the selected record.
Result block: 1

* * *

target: truncated form of human NaV 1.8 with full channel activity (Homo sapiens, UniProt Q9Y5Y9); test: E-VIPR Assay Method A for detecting and measuring Nav inhibition (HEK cells, membrane potential FRET dyes, electrical stimulation); assay type: cell-based; conditions: HEK cells expressing human NaV 1.8, HS (human serum) in compound loading buffer, 11 point dose response, top dose 3 μM, Table 20A, read-out: Nav 1.8 MedChem Optical Assay EVIPR Assay Method A HS IC50
endpoint-name: IC50 (nM)

For orientation, consider the following solved cases.
Per the reported truncated form of human NaV 1.8 with full channel activity (Homo sapiens, UniProt Q9Y5Y9) data, "CCOc1c(C(F)(F)F)ncc(Oc2ccc(OC(F)(F)F)cc2OC)c1C(=O)Nc1ccnc(C(N)=O)c1" has IC50 of 45

The observed IC50 for "COc1cc(OC(F)(F)F)ccc1Oc1cc(C(F)(F)F)cc(F)c1C(=O)Nc1ccc(C(N)=O)nc1" when tested with truncated form of human NaV 1.8 with full channel activity (Homo sapiens, UniProt Q9Y5Y9) stands at 53

# value of IC50, truncated form of human NaV 1.8 with full channel activity (Homo sapiens, UniProt Q9Y5Y9), item "NC(=O)c1cc(NC(=O)c2cnc(C3CC3)cc2Oc2ccc(OC(F)(F)F)c(Cl)c2)ccc1F" = 215

Given the compound "COc1cc(OC(F)(F)F)ccc1Oc1ccc(C(F)(F)F)c(OC)c1C(=O)Nc1ccc(C(N)=O)cn1" and test system truncated form of human NaV 1.8 with full channel activity (Homo sapiens, UniProt Q9Y5Y9), the measured IC50 is 150

Reading of IC50 for "[2H]C([2H])([2H])Oc1c(Oc2ccc(C(F)F)c(F)c2C(=O)Nc2cc(C(N)=O)ncc2C)ccc(OC(F)(F)F)c1F" with truncated form of human NaV 1.8 with full channel activity (Homo sapiens, UniProt Q9Y5Y9): 12

[I] COc1cc(OC(F)(F)F)ccc1Oc1cc(C2C[C@@H]2C)ncc1C(=O)Nc1ccnc(C(N)=O)c1 (mixture of isomers)
[II] COc1cc(OC(F)(F)F)ccc1Oc1cccc(C(F)(F)F)c1C(=O)Nc1ccc(F)c(C(N)=O)c1
[III] COc1cc(OC(F)(F)F)ccc1Oc1ccc(C(F)(F)F)c(F)c1C(=O)Nc1ccnc(C(=O)N(C)C)c1
[IV] NC(=O)c1cc(NC(=O)c2c(Oc3ccc(OC(F)(F)F)cc3)ccc(F)c2F)ccc1F
Query block: Rank by IC50 (largest to smallest). Rank the items, then write their labels in that order.
Result block: IV, I, II, III
(IV: 140 nM, I: 65 nM, II: 34 nM, III: 20 nM)

[P] [2H]C([2H])([2H])Oc1c(Oc2ccc(OC(F)(F)F)c(F)c2C(=O)Nc2ccnc(C(N)=O)c2)ccc(OC(F)(F)F)c1F
[Q] NC(=O)c1cc(NC(=O)c2c(Oc3ccc(OC(F)(F)F)cc3)cnc(C(F)(F)F)c2F)ccc1F
Query block: Would you kindly point out which of P and Q has the smaller IC50 figure? Lab log: write the label of the selected item as the result.
Result block: P
(P: 3 nM, Q: 11 nM)

[A] COc1cc(OC(F)(F)F)ccc1Oc1ccc(C(F)(F)F)c(F)c1C(=O)Nc1cc(C(N)=O)c(F)cc1C
[B] NC(=O)c1cc(NC(=O)c2c(Oc3ccc(OC(F)(F)F)cc3O)ccc(C(F)(F)F)c2F)ccn1
Query block: Which has the smaller recorded IC50, A or B ? Answer by quoting the chosen item's label.
Result block: A
(A: 100 nM, B: 660 nM)
